Attribution: PubChem BioAssay (NCI)

tested on: PC-3 prostate; experiment: NCI-60 one-dose screen, 48 h (100 = growth as untreated, 0 = no growth, -100 = all killed); conditions: 10 µM
Compounds without any hit were thinned out: in the full panel of roughly 83,000, 20% have a hit.
READOUT_LABEL: growth (%)

COc1cc(-c2nc(Nc3nc4ccccc4s3)[nH]c(=O)c2C#N)cc(OC)c1O ... 101
O=C(/C=C/c1cc2ccccc2[nH]c1=O)c1ccc2c(c1)OCO2 ... 77.5
CCCCCCCCCCCCCCCCCC(=O)OCCCCCCC ... 92.9
COc1ccc(-c2nn(-c3cccc(NC(=O)c4ccc(N5CCOCC5)c(C(F)(F)F)c4)c3)cc2-c2ccncc2)cc1Cl ... 42.7
O=C(Nc1cccc(-n2cc(-c3ccncc3)c(-c3ccc(O)c(Cl)c3)n2)c1)Nc1ccc(Cl)c(Cl)c1 ... -7.87

###

tested on: DU-145 prostate; assay: NCI-60 one-dose screen, 48 h; settings: 10 µM
Compounds without any hit were thinned out: in the full panel of roughly 83,000, 20% have a hit. The source made the active and inactive calls. How the source made its calls: active means growth percent below 10; inactive means the rest.
Outcomes: class 1 for active, class 0 for inactive

Nc1ccc2c(c1)C1(CCC2)NC(=O)NC1=O (stereo not drawn) ... class 0
COc1ccc(N2C(=O)C3c4[nH]c5ccc(OCc6ccccc6)cc5c4C4CCC(C(C)C)CC4C3C2=O)cc1 (stereo not drawn) ... class 0
O=C(N/N=C/c1ccccc1)C(Oc1ccccc1)c1ccccc1 (stereo not drawn) ... class 0
CN(C)C(=S)N/N=C\C=N/NC(=S)N(C)C ... class 0
COc1cc(Nc2ccnc(NCCCNc3ccnc4cc(Cl)ccc34)n2)cc(OC)c1 ... class 0
CCCCCCCCCCCC[n+]1ccc(C(N)=O)cc1 ... class 0
Cc1ccc(Nc2cc(C)nc(NCCCNc3ccnc4cc(Cl)ccc34)n2)cc1 ... class 1
Nc1c(C(=O)Nc2ccccc2)sc2nc3c(cc12)C(O)CCC3 (stereo not drawn) ... class 1
CCOC(=O)c1ccc(NC(=O)Nc2ncc(Cl)cc2Cl)cc1 ... class 0
O=C1/C(=C\c2ccc(F)cc2)CN(C(=O)c2ccccc2)C/C1=C\c1ccc(F)cc1 ... class 0
O=C1/C(=C\c2ccc(Br)cc2)CN(C(=O)c2ccccc2F)C/C1=C\c1ccc(Br)cc1 ... class 1
N=C(N)c1ccc(-c2ccc(-c3cccs3)s2)cc1 ... class 1
Nc1nc(N)c(NC(=O)CNc2ccc(C(=O)O)cc2)c(N)n1 ... class 0
Clc1ccc(/C=C2\CCCC3=C2N=C2SC=NN2C3c2ccc(Cl)cc2)cc1 (stereo not drawn) ... class 0
CC(C)(C)c1cc(Br)cc(C(C)(C)C)c1O ... class 0
O=C(Nc1cccc(Cl)c1)Nc1nccs1 ... class 0
COC(=O)C1(C)Cc2cc(OC(C)=O)c(OC(C)=O)cc2N1 (stereo not drawn) ... class 0
COc1cc2nc(Nc3cccc(C(=O)O)c3)nc(N)c2cc1OC ... class 0
FC(F)(F)c1ccc(-c2cnc(Cl)nc2N2CCC3(CC2)OCCO3)cc1 ... class 0
CCCCN(CCCC)c1cc(C(=O)CCCCCN)c2ccccc2n1 ... class 1
CCCCCCCCN(CCCCCCCC)CCCCCCCCCN1CCCc2cc(OC)ccc21 ... class 0
CC(C)=CCc1ccc(O)c(=O)cc1C(C)C ... class 0
CC(=O)O[C@]1(C)CC[C@H]2[C@H](CNCCc3ccc(Cl)cc3)C(=O)O[C@@H]2C2=C(C)C(=O)C[C@H]21 ... class 0
CCOCC(=O)C(C#N)c1ccc(Cl)c(Cl)c1 (stereo not drawn) ... class 0
CCN(CC)CCC(=O)Nc1cccc2c1C(=O)c1c(c(O)c3ccccc3c1O)C2=O ... class 0
O=C(Nc1nc2ccc(F)cc2s1)c1cc(-c2ccc(F)cc2)n2nc(-c3ccccc3)cc2n1 ... class 0
CN(C)N=Nc1nn(C(=O)Nc2ccc(Cc3ccccc3)cc2)c2ccccc12 ... class 0
CCCN(CCC)CCC(O)c1cc2c(c3ccccc13)CCCC2 (stereo not drawn) ... class 0
O=C(Nc1ccncc1)C(=O)c1cn(S(=O)(=O)c2cc(Cl)cc(Cl)c2)c2ccccc12 ... class 0
O=C(Nc1cccc(-n2cc(-c3ccncc3)c(-c3ccc(O)c(Cl)c3)n2)c1)c1cc(C(F)(F)F)cc(C(F)(F)F)c1 ... class 0
COc1ccc(/C=C/C(=O)Nc2ccc(-c3nc4ccc(F)cc4s3)cc2)cc1 ... class 0
CN(C)c1ccc(N=C2C=CC(=O)c3ccccc32)cc1 ... class 1
COc1ccc(/C=C/C(C)=N/OCC(=O)O)cc1 ... class 0
CSc1nc(=O)n(Cc2ccc(Cl)cc2)c(=O)[nH]1 ... class 0
CN1c2ccccc2[C@]2(Cc3ccccc3)Cc3ccccc3N[C@H]12 ... class 0
CCCCOc1ccc(NC(=O)Nc2nnc(C)s2)cc1 ... class 0
COc1cc(-c2cc(/C=C3\C(=O)Nc4ccccc43)[nH]n2)cc(OC)c1OC ... class 0
COc1ccc(/C=C2/CN(C(=O)c3ccccc3F)C/C(=C\c3ccc(OC)cc3)C2=O)cc1 ... class 0
CC(C)(C)NC/C(=C\c1ccccc1)C(=O)c1ccccc1 ... class 0
C=C1c2c(C)nn(-c3ccc(OC)cc3)c2N(C)C23C[C@@H]1C1(C)c4c(C)nn(-c5ccc(OC)cc5)c4N(C)C(C)(C[C@H]12)C3 (stereo partly drawn) ... class 0
COc1ccc(-c2nn(-c3cccc(NC(=O)Nc4cccc(C(F)(F)F)c4)c3)cc2-c2ccncc2)cc1Cl ... class 0
CN(C)CCS(=O)(=O)CCN(C)C ... class 0
O=C(Nc1ccc(Cl)c(Cl)c1)Nc1c(Oc2ccc(Cl)c(Cl)c2)ccc(Cl)c1S(=O)(=O)O ... class 0

###

tested on: U251 CNS; experiment: NCI-60 one-dose screen, 48 h (100 = growth as untreated, 0 = no growth, -100 = all killed); details: 10 µM
About 83,000 compounds went through this panel and 20% of them were active in at least one assay; those are over-represented in the sample as a whole.
READOUT_LABEL: growth (%)

Fc1cc(C(F)(F)F)ccc1-c1cncnc1NC1CCCCCC1 ... 79.9
COc1ccc2c(c1)nc(N)c1c3cccnc3cn21 ... 12.7
O=[N+]([O-])c1ccc(Oc2cccnc2)c([N+](=O)[O-])c1 ... 85.7
CCC(=O)N1C/C(=C/c2ccc(Cl)cc2)C(=O)/C(=C/c2ccc(Cl)cc2)C1 ... -80.1
CCOC1(OCC)OC(c2ccccc2)=C(C#N)C(/C=C\c2ccccc2)C1(OCC)OCC (centres undefined) ... 77.4
CN1CCCNc2c(c(=O)c2=O)NCCCN(C)CCCNc2c(c(=O)c2=O)NCCCN(C)CCCNc2c(c(=O)c2=O)NCCCN(C)CCCNc2c(c(=O)c2=O)NCCCN(C)CCCNc2c(c(=O)c2=O)NCCCN(C)CCCNc2c(c(=O)c2=O)NCCCN(C)CCCNc2c(c(=O)c2=O)NCCC1 ... 15.2
CC(=O)c1nc2ccccc2n1CCN1CCN(C)CC1 ... 28.4
Nc1ccc2c(c1)C1(CCC2)NC(=O)NC1=O (centres undefined) ... 91.5
CC[C@H](C)C(=O)O[C@H]1CCC=C2C=C[C@H](C)C(CCC3C[C@@H](O)CC(=O)O3)[C@H]21 (some centres undefined) ... 16.8

###

test system: CCRF-CEM leukemia; experiment: NCI-60 one-dose screen, 48 h; settings: 10 µM
Compounds without any hit were thinned out: in the full panel of roughly 83,000, 20% have a hit. Active and inactive are the calls of the source. The calls were made as follows: active = growth percent below 10; inactive = the rest.
Outcomes: TRUE (active), FALSE (inactive)

CCN(CC)CCCOCCCNc1cc(OC)cc2cccnc12 ... FALSE
CC(C)(C)c1ccc(N2CSC(=S)N(c3ccc(C(C)(C)C)cc3)C2)cc1 ... FALSE
COc1cc2cc3c(nc2cc1OC)CCN3Cc1ccc(NC(=O)c2ccc(Cl)c(C(F)(F)F)c2)cc1 ... FALSE
CC(C)C[C@H](NC(=O)[C@H](Cc1cccc2ccccc12)NS(=O)(=O)c1cccc2cccnc12)B(O)O ... TRUE
c1ccc([I+]c2ccccc2)cc1 ... FALSE
C/C(N)=C(\C#N)C(=O)c1ccccc1 ... FALSE
Nc1nc(Nc2ccccc2)n[nH]1 ... FALSE
CS(=O)(=O)Nc1ccc(Nc2c3ccccc3nc3cc([N+](=O)[O-])ccc23)cc1 ... TRUE
COc1cc(/C=C\c2cc(OC)c(OC)c(OC)c2)cc(NS(=O)(=O)c2ccc(Cl)cc2)c1OC ... FALSE
O=c1oc2cc(OS(=O)(=O)c3ccccc3)ccc2c2c1CCCCC2 ... FALSE
CN(C)CCS(=O)(=O)CCN(C)C ... FALSE
CSC1=NCCCC1 ... FALSE
Nc1ccn(C2CC(O)C(CO)O2)c(=O)n1 (stereo not drawn) ... FALSE
CCCCOc1ccc(NC(=O)Nc2nnc(C)s2)cc1 ... FALSE
COc1cc(/C=C2\Oc3cc(OCC(=O)c4ccccc4)ccc3C2=O)cc(OC)c1OC ... FALSE
COc1ccc2c(c1)O/C(=C\c1ncc([N+](=O)[O-])n1C)C2=O ... TRUE
CC(=O)c1cc(Cl)ccc1O ... FALSE
Cc1cc(N(CCCNc2ccnc3cc(Cl)ccc23)Cc2ccc3c(c2)OCO3)nc(N2CCCCC2)n1 ... TRUE
C[N+](C)(C)c1ncnc2nc[nH]c12 ... FALSE
Nc1ccc2cc(S(=O)(=O)O)cc(O)c2c1N=Nc1ccc(F)cc1 ... FALSE
COc1cc2c(cc1OCCCN1CCN(c3ncnc4ccccc34)CC1)N=CC1CCCN1C2=O (stereo not drawn) ... TRUE
COc1ccc(-c2nc3ncccn3c2-c2nnc(-c3ccsc3C)o2)cc1 ... FALSE
COc1cc(-c2nn3c(/C=C4/C(=O)Nc5ccccc54)c(-c4ccc(C)cc4)nc3s2)cc(OC)c1OC ... FALSE
